assay system: Cytochrome P450 1A2 (Homo sapiens)
experimental details: CYP1A2 enzyme inhibition, late-stage follow-up, biochemical (AID 652076)
condition label: Human CYP inhibition panel, LC-MS/MS marker substrate metabolism; CYP1A2; at 10 µM; stronger effect = higher value
recorded endpoint: inhibition (%)
One number for each entry, in %.

Query string: Form field: inhibition recorded for COC(=O)c1cc(Br)cnc1N1CCC(NC2CCCCC2)C(O)C1 (stereo unspecified) with Cytochrome P450 1A2 (Homo sapiens) (enter value)
Result string: -9
